So I've got a bunch of compounds here, and I need their inhibition values.
procedureDetails: 384-well plate pilot, post-Golgi transport modulator project, inhibition of yeast transport mutant growth (AID 636)
conditionSummary: absorbance 615 nm, about 18 h, hits give high values
Form entry: value (%) — number only.

Note down inhibition recorded for CCCOc1cccc(C2/C(=C(/O)c3ccccc3)C(=O)C(=O)N2CCN(C)C)c1 (stereo not drawn)
-6.62

Note down inhibition recorded for CC(CCc1ccccc1)NCc1ccncc1 (stereo not drawn)
-6.53

Note down inhibition recorded for O=S(=O)(c1ccccc1)N(Cc1nc(-c2ccccc2)no1)C1CCCCC1
-6.27

* * *

procedureDetails: growth suppression of yeast trafficking mutant, preliminary HTS, modulators of trafficking downstream of Golgi apparatus project, 1536-format plate, OD 615 nm (AID 637)
conditionSummary: yeast transport mutant growth, absorbance 615 nm, 18 h; hits give high values
So I've got a bunch of compounds here, and I need their inhibition values.
Form entry: value (%) — number only.

Note down inhibition recorded for CC1(C)OC(=O)C(=CNC(CCC(N)=O)C(=O)O)C(=O)O1 (stereo unspecified)
5.4

Note down inhibition recorded for COc1cccc(C(=O)Nc2ncc3c(n2)CC(C)CC3=O)c1 (stereo unspecified)
2.22

Note down inhibition recorded for O=C(NCc1cccnc1)c1ccccn1
-3.65

Note down inhibition recorded for O=C(OCc1cc2ccccc2[nH]c1=O)c1ccncc1
-2.74

Note down inhibition recorded for CCOC(=O)N1CCN(Cc2cc(=O)oc3ccc4ccccc4c23)CC1
2.86

Note down inhibition recorded for O=C(COc1ccc(F)cc1Br)N1CCc2ccccc21
-0.33

Note down inhibition recorded for Clc1ccc(OCc2nc(-c3ccccn3)no2)c(Br)c1
-8.67

Note down inhibition recorded for Cc1cc(O)c(C(C)C)cc1N=C1CSC(=O)N1
-1.82

Note down inhibition recorded for CC(=O)c1c(C)oc2ccc(NS(=O)(=O)c3ccc(O)c(C(=O)O)c3)cc12
0.79

Note down inhibition recorded for COc1ccc2[nH]c(=O)c(CNC3CCCCC3)cc2c1
0.5

Note down inhibition recorded for CCOC(=O)c1c(-c2cccs2)csc1NC(=O)CCCC(=O)O
-3.27

Note down inhibition recorded for COCCCN(C(C)=O)c1nc(-c2ccccc2)cs1
-3.17

Note down inhibition recorded for CC(C)=CC/C=C1\CCC(C(=O)O)C(C(=O)O)C1 (stereo unspecified)
-0.48

Note down inhibition recorded for CCn1c(=O)cc(SCC(=O)Nc2cccnc2)c2ccccc21
1.43

Note down inhibition recorded for COc1cccc(N2CCN(C(=O)C3C4C=CC5(CN(Cc6ccccc6Cl)C(=O)C35)O4)CC2)c1 (stereo unspecified)
-6.17

Note down inhibition recorded for O=c1c(CN2CCN(Cc3ccccc3)CC2)coc2ccc(Cl)cc12
-6.89

Note down inhibition recorded for Cc1nc(SCc2ccc(Br)cc2)[nH]c(=O)c1C
0.82

Note down inhibition recorded for CC(C)(C)C(=O)N=C1SC2CS(=O)(=O)CC2N1c1ccc2c(c1)OCO2 (stereo unspecified)
-7.82

Note down inhibition recorded for CCOC(=O)c1cc2sccc2n1CC(=O)Nc1ccc(OC)cc1OC
-3.82

Note down inhibition recorded for CCOC(=O)C(C)n1cnc2c(nnn2Cc2ccc(C)cc2)c1=O (stereo unspecified)
1.9

Note down inhibition recorded for Cc1c(C(=O)Nc2cnccn2)oc2ccccc12
3.49

* * *

procedureDetails: growth inhibitors of H69AR lung tumor, primary screen, human, duplicate replicates (AID 580);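 also: 100% = mean luminescence of untreated wells and 0% = no signal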
conditionSummary: H69AR lung tumor cells viability, ATP luminescence, 72 h; at 10 µM; hits give low values
propertyName: viability (%)
Form entry: value (%) — number only.

Note down viability recorded for CC1=Nn2c(nnc2-c2ccccn2)SC1
99.5

Note down viability recorded for COc1ccc(N2CCN(C(c3cccs3)c3nnnn3C3CCCC3)CC2)cc1 (stereo not drawn)
70

Note down viability recorded for CC1CCN(CCn2c(=S)[nH]c3ncccc3c2=O)CC1
104

Note down viability recorded for CCCOc1ccc(OCCSc2ncccn2)cc1
102

Note down viability recorded for CCc1nnc(NC(=O)c2cccc(C(=O)Nc3nnc(CC)s3)n2)s1
8.87

Note down viability recorded for COc1ccc(Br)cc1CNC(=O)CCc1nc(-c2ccc(C)cc2)no1
94.2

Note down viability recorded for FC(F)(F)c1nnc2sc(-c3cccs3)nn12
113

Note down viability recorded for CCOc1cc(C2C(C(=O)c3ccccc3)=C(C(=O)OC)Nc3nnnn32)ccc1O (stereo not drawn)
97.6

Note down viability recorded for Cc1cc(NC(=O)CSc2nc3ccsc3c(=O)n2NC(=O)c2ccccc2)no1
97.1

Note down viability recorded for CNC(=O)CN(C#N)c1nc(N(C)C)nc(N(C)C)n1
92.8

Note down viability recorded for O=C(CCn1c(=O)sc2ccccc21)NC1=NCCS1
91.6

Note down viability recorded for CC1(C)Cc2cccc(OCC(=O)O)c2O1
95.4

Note down viability recorded for CCCN(Cc1cc2cc(C)ccc2[nH]c1=O)C(=O)c1cccc(OC)c1
81.2

Note down viability recorded for Cc1cc(C)c(NC(=O)C2CSCCS2)c(C)c1 (stereo not drawn)
100

Note down viability recorded for O=C(Nc1ccccc1N1CCN(C(=O)c2ccc(Cl)cc2)CC1)c1cc2ccccc2o1
85.5

Note down viability recorded for CC(C)(C)Nc1nc(OCC(F)(F)F)nc(OCC(F)(F)F)n1
89.1

Note down viability recorded for Cc1[nH]c(=O)[nH]c(=O)c1S(=O)(=O)Nc1ccc(Oc2ccccc2)cc1
97.8

Note down viability recorded for COC(=O)C1CCN(C(=O)NC(C)(C)C)CC1
105

Note down viability recorded for COc1ccc(OC)c(C2=NOC(C(=O)NCCN3CCOCC3)C2)c1 (stereo not drawn)
90.6

Note down viability recorded for O=C(COc1ccc(Cl)cc1)Nc1nc(-c2cccs2)cs1
77.5

Note down viability recorded for CCOC(=O)C1CCN(C(c2cc3cc(C)cc(C)c3[nH]c2=O)c2nnnn2C2CCCCC2)CC1 (stereo not drawn)
62.8

Note down viability recorded for CNC(=O)CN(c1cc(C)ccc1OC)S(=O)(=O)c1ccc(C)cc1
103

Note down viability recorded for COC(=O)C(C)Oc1ccc2c3c(c(=O)oc2c1)CCCCC3 (stereo not drawn)
103
